This section presents molecules with their documented Kd values.
- Experimental Protocol: Binding affinity to pre-miR-21 (unknown origin) assessed as dissociation constant by fluorescence-based assay

A selection of reference data follows.
Molecule: C/C(=N\NC(=O)c1ccccn1)c1c(C)[nH]n(-c2ccccc2)c1=O
Result: 109 µM
//
Molecule: NC(=O)C1=Cc2ccccc2C/C1=N/CC(=S)Nc1ccccc1
Result: 3.7 µM
//
Molecule: O=c1cc(N2CCC(N3CCCC3)CC2)c2ccccc2o1
Result: 23 µM

Next:
(Q) Fill in reported Kd for this entry: COc1ccccc1CCNC1CC(=O)C(c2ccc(C)cc2)C1=O (centres undefined)
(A) 38 µM

----------
- Experimental Protocol: Inhibition of human topoisomerase 2
Property Label: pIC50
Lab note: report pIC50 as minus log10 of the concentration in molar units, number only.

(Q) Fill in reported pIC50 for this entry: "CCn1cc(C(=O)O)c(=O)c2cc(F)c(N3CCNCC3)nc21"
(A) 4.52
